# System: KDM4C (Homo sapiens)
# Construct: Full length
# Sequence (Q9H3R0 whole entry): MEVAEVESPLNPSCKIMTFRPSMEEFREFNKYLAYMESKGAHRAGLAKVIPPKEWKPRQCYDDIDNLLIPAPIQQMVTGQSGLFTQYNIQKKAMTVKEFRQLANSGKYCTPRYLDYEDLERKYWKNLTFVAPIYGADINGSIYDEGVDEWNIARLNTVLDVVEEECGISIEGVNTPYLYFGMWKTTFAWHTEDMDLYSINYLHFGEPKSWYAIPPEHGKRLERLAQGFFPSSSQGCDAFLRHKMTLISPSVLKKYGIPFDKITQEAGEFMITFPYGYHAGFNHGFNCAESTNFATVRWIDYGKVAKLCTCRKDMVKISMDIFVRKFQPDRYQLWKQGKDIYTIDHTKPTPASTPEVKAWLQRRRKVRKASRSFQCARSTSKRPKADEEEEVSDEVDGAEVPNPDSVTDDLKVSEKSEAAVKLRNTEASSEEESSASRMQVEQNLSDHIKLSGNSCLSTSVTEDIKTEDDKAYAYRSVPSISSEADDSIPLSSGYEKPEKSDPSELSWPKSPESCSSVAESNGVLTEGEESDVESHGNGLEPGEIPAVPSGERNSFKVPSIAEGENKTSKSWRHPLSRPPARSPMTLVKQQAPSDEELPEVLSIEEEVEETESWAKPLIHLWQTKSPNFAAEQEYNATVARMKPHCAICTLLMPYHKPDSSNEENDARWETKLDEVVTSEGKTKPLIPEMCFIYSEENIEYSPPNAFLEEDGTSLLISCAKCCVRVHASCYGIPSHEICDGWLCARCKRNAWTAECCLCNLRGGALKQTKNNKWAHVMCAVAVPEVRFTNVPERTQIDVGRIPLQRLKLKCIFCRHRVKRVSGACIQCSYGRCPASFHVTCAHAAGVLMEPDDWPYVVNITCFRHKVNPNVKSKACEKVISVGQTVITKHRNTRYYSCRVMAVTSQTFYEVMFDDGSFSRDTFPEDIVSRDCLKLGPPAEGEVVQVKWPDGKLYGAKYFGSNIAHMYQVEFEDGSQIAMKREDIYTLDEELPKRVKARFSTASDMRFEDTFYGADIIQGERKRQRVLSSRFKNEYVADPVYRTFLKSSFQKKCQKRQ
# Test Method Notes: Histone lysine demethylase immunofluorescence assay, U2OS cells transfected with KDM4C
# Settings: U2OS cells transfected with pCMVHA KDM4C; mark detected H3K9me3; 20 hours
pIC50: −log10 of the molar value.
Below, each entry is listed alongside its reported pIC50.

1) CN1CCN(C(=O)CNCc2cc(/C=N/C3CC3)ccn2)CC1: < 5.60
2) CCN(CCC#N)C(=O)CNCc1cc(/C=N/CCO)ccn1: < 5.60
3) CN(C)CCC/N=C/c1ccnc(CNCCCN(C)C)c1: 5.60 to 6.60
4) CCCNCc1cc(CNC2CC2)ccn1: < 5.60
5) CN(CC(=O)N1CCCCC1)Cc1cc(C=O)ccn1: < 5.60

Record CCN1CCCC1CNC(=O)CNCc1cc(C=O)ccn1 (stereo not drawn) , field pIC50: < 5.60

Record CCN(CCN(C)C)C(=O)CN(Cc1cc(CNC(=O)C(F)(F)F)ccn1)C(=O)C(F)(F)F , field pIC50: 5.60 to 6.60

Record CN(C)CCCNCc1cc(/C=N/CCN(C)C)ccn1 , field pIC50: < 5.60

Record CN(C)CC1CCC(CNCc2cc(/C=N/C3CC3)ccn2)CC1 (stereo not drawn) , field pIC50: 5.60 to 6.60

Record CCN(CC)CCCCN(Cc1cc(C=O)ccn1)C(=O)C(F)(F)F , field pIC50: 5.60 to 6.60
